tested system: Amine oxidase [flavin-containing] A (Rattus norvegicus)
Sequence (P21396 whole entry): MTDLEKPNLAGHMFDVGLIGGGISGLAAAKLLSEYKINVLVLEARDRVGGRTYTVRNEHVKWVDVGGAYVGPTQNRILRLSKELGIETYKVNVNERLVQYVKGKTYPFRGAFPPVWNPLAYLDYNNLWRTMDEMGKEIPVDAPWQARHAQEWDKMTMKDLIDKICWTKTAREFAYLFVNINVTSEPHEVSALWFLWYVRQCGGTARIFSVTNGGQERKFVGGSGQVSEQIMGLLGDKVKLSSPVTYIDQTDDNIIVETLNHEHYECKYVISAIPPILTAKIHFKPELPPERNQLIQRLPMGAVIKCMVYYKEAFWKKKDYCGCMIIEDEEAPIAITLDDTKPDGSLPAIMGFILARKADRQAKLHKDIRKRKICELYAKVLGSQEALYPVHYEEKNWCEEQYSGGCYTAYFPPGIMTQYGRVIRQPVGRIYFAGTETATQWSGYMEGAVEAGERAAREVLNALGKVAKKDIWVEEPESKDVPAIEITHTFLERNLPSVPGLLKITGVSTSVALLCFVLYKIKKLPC
method: Displacement of [3H]Ro 41-1049 from rat MAO-A receptor expressed in HEK293 cells
Format: cell-based
experimental conditions: read-out: Ki
recorded endpoint: pKi
pKi here is simply -log10 of the concentration when that concentration is written in mol/L.

Inquiry: Item under review: "CCCN1CCC(c2cccc(OC)c2)CC1" . Reported pKi?
Reply text: 4.74

Inquiry: Quick one: pKi of "CCCN1CCN(c2cccc(OC)c2)CC1" ?
Reply text: 4.80

Inquiry: Recorded pKi for "CCCN1CCC(c2cccc(C(F)(F)F)c2)CC1" , please?
Reply text: 3.89

Inquiry: Fill in the blank: the reported pKi of "CCCN1CCC(c2ccccc2OC)CC1" is ____.
Reply text: 5.62

Inquiry: What measured pKi goes with "CCCN1CCN(c2cccc(S(C)(=O)=O)c2)CC1" ?
Reply text: 3.90

Attribution: ChEMBL document CHEMBL2331278
